Source of measurements: the nanobody polyreactivity screen of Harvey et al. (2022)

RUN_DESCRIPTION: yeast display, Sf9 membrane polyspecificity reagent, FACS + sequencing; frameworks hold sequencing errors
ENDPOINT_NAME: polyreactivity (PSR sort gate)

Please review the entries below; each comes with its answer.
ITEM_SEQUENCE | polyreactivity (PSR sort gate)
QVQLVESGGGLVQAGGSLRLSCAASGNTFKYYAMGWYRQAPGKERELVAAITWNGARTYYADSVKGRFTISRDNAKNTVYLQMNSLKPEDTAVYYCNARQGYRFDYWGQGTQVTVSS | high polyreactivity
QVQLVESGGGLVQGGGSLRLSCAASGSTFAVYDMGWYRPAPGKERELVAAITVSGSSTHYADSVKGRFTISRDNAKNTVYLQMNSLKPEDTAVYYWGQGTQVTVSS | low polyreactivity
QVQLVESGGGLVQAAGSLRLICDASGFTFDLYAMGWYRQAPGKERELVAAISWSGGSTRYADSVKGGFTISRDNSKNTVYLQMTSLKPEDTALYYCARQPRLYFKVKLYGYWGQGTQVTVSS | high polyreactivity
QVQLVEKRGGLVQAGGILRLSCAASGCILVGYAMGWSRQAPGKERELVAAINYSGGSTNYADSVKGRFTISLDNAKNTVYLQMISLKPEDTAVYYCAARSTARYGYWGQGTQVTVSS | low polyreactivity

Now for another entry.
Fill in the blank: the reported polyreactivity (PSR sort gate) of QVQLVESGGGLVQAGGSLRLSCAASGFIFGYYAMGWDRQAPGKERELVAAITSDGNTDYSDSVKGRFTISRDNAKNTVYLQMNSLKPEDTAVYYCATDWVDHYDYWGQGTQVTVSS is ____.
low polyreactivity

----------
RUN_DESCRIPTION: yeast display, Sf9 membrane polyspecificity reagent, FACS + sequencing; frameworks hold sequencing errors
ENDPOINT_NAME: polyreactivity (PSR sort gate)

ITEM_SEQUENCE | polyreactivity (PSR sort gate)
QVQLVESGGGLVQAGGSLSLSCAASGFIFGGNAMGWYRQAPGKERELVAAISSGGRTYYADSVKGRFTISRDNAKNTVYLQMNSLKPEDTAVYYLNDYSYHRGRDYWGQGTQVTVSS | low polyreactivity
QVQLVESGGGLDQEGGSLRLSCAASGNIFSSYLMGWYRQAPGKEREVVAAISSRGGSTYYADSVKGRFTISRDNAKNSVYLQMNSLKPEDTAVYYCAARTGRYYRRYDYWGQGTQVTLSS | high polyreactivity
QVQIVESGGGLVQAGGSLRLSCAASGSTFGDNAMGWSRQAPGKERELVAAITRSGGSTYYADSVKGRFTISRDTAKNTVYLHMHSLKPEDTAVYYCNADWYFQYPYDYGGQGTQVTVSS | low polyreactivity
QVQLVESGGGLVQAGGSLRLSCAASGITFRYYAMGWYRQAPGKERELVATISWSGGSTYYADSVKGRFTISRDNAKNTVYLQMNSLKPEDTAVYYCNADWYRSAWSKYDYWGQGTQVTVSS | high polyreactivity
QVQLVESGGGLVQAGGSLRLSCAASGRTLRIYAMGWYRQAPGKERELVAAITSSGRTNYADSVKGRFTISRDNAKNTVYLQMNSLKPEDTAVYYCAAVTPAVNYFRAASGYYYWGQGTQVTVSS | low polyreactivity

Now for another entry.
Fill in the blank: the reported polyreactivity (PSR sort gate) of QVQLVDSGGGLVQAGGILRLSCAASGLTFYDNAMGWYRQAPAKERELVAAISDSGGSTYYADSVKGRFTISRDNAKNTVFLQMNSLKPEDTAVYYCAAAGWQANWEYEYWGQGTQVTVSS is ____.
high polyreactivity

----------
RUN_DESCRIPTION: yeast display, Sf9 membrane polyspecificity reagent, FACS + sequencing; frameworks hold sequencing errors
ENDPOINT_NAME: polyreactivity (PSR sort gate)

ITEM_SEQUENCE | polyreactivity (PSR sort gate)
QVQLVESGGGLVQAGGSLRLSCAASGRTFRRYAMGWYRQAPGKERELVAAITGAGSTYYADSVKGRFTISRDNAKNTVYFQMNSLKPEDTAVYYCAATPDPPHSYEYWGQGTKVTVSS | low polyreactivity
QVQLVESGGGLVQAGGSLRLSCAASGFIFNAYTMGWYRKAPGKERELFAAISRRGSSTYYADSVKGRFTISRDNAMNTVYLQMNSLKPEDTAVYYCNTRLYARDDSDFDYWGQGPQVTVSS | high polyreactivity
QVQLVESGGGLVQAGGSLRLSCAASGITFSRYAMGWYRQAPGKERELVAAISSGGSTYYADSVKGRFTISRDNAKNTVYLQMNSLIPEDTAVYYCAADGLTGSKYRATGYYWGQGTQVTVSS | high polyreactivity
QVQLVESGGGLVQAGGSLRLSCAASGRIFVPYAMGWYRQAPGKERELVATITFGGGRTYYADSVKGRFTISRDNAKNTVYLQMNSLKPEDTAVYYCAADYYLWRLPVYAQRSFVRGDYWGQGTQVTVSS | low polyreactivity

Now for another entry.
Fill in the blank: the reported polyreactivity (PSR sort gate) of QVQLVESGGGLVQAGGSLRLSCASTGSTFTTYAMGWYRQPPGKERELVAAISSRSTRTYYADSVKGRFTISRDNAKNTVYLQMNSLKPEDTAVYYCAASVPWKYEYWGQGTQVTVSS is ____.
high polyreactivity

----------
RUN_DESCRIPTION: yeast display, Sf9 membrane polyspecificity reagent, FACS + sequencing; frameworks hold sequencing errors
ENDPOINT_NAME: polyreactivity (PSR sort gate)

ITEM_SEQUENCE | ENDPOINT_NAME | ENDPOINT_RESULT
QVQLVESGGGLVQAGGSLRLSCAASGSIFYYNAMGWYRQAPGKEREFVAAIRTRGDSTYYADSVKGRFTISRDNAKNTVYLQMNSLKPEDTAVYYCAARHYGGDGNKYYYWGHGTQVTVSS | polyreactivity (PSR sort gate) | high polyreactivity
QVQLVESGGGLVQAGGSLRLRCAASGFISGYNTMGWYRQAAGKEMEFVAAISVSGGRTYYADSVKGRFTFSRDNAKNTVYLQMNSLKPEDTAVYYCAGRYWSWRSFKVDYWGQGTQVTVSS | polyreactivity (PSR sort gate) | high polyreactivity

----------
RUN_DESCRIPTION: yeast display, Sf9 membrane polyspecificity reagent, FACS + sequencing; frameworks hold sequencing errors

ITEM_SEQUENCE | polyreactivity (PSR sort gate)
QVQLVESGGGLVQAGGSLRLSCAASGRIFYHNAMGWYRQAPGKERELVAAITWSGGSTYYADSVKGRFTISRDNAKNTVYLQMNSLKTDDTAVYYCNALSNRYYSKLGSWGQGTQVTVSS | high polyreactivity
QVQLVESGGGLVQAGGSLRFSCAASGFTFYVYAMGWYRHAPGKERELVAAISKSGGSTYYSDSVKGRFTISRDNAKNTVYLQMNSLKPEDTAVYYCAVYDKRSGYRGGHRYNSWGQGTQVTVSS | high polyreactivity
QVQLVESGGGLVQAGGSLRISCAASGFIFTRYVMGWYSQAPGKERELVAGISTRGARTYYADSVKGRFTISRDNAKNTVYLQMNSLKPEDTAVYYCAKDYYKHYYWGQGTQVTVSS | high polyreactivity

----------
RUN_DESCRIPTION: yeast display, Sf9 membrane polyspecificity reagent, FACS + sequencing; frameworks hold sequencing errors
ENDPOINT_NAME: polyreactivity (PSR sort gate)

ITEM_SEQUENCE | polyreactivity (PSR sort gate)
QVQLVESGGGLVQAGGSLRLSCAASGSPFPYVMVWYRQAPGKERELVAAISQRTGSTYYADSVKGRFTISRDNAKNTVYLQMNSLKPEDTAVYYCAKPGYLRPSRYDYWGQGTQVTVSS | high polyreactivity
QVQLVESGGGLVQAGGSLRLSCAASGSTFRGYAMGWYRQAPGKERELVAAITYISDSTYYADSVKGRFTLSRDNAKNTVYLQMNSLKPEDTAVYYCNAYYDGDWRYTSQETGDHWGQGTQVTVSS | low polyreactivity
QVQLVESGGGLVQAGGSLRLSCAASGRIFGVYAMGWYRQAPGKERELVATIRSSGTRTNYADSVKGRFTISRDNAKNTVYLQMNSLKPEDTAVYYCAAGGRPYKLDFTRSDYWGQGTQVTVSS | low polyreactivity
QVQLVESGGGLVQAGGSLRLSCAASGSILFKNAMGWYRQAPGKERELVAAISTSGGRTYYADSVKGRFTISRDNAKNTVSLQMNSLKPEDTAVYYCAAVYPRQVSQVWRDDYWGQGTQVTVSS | high polyreactivity

Now for another entry.
Fill in the blank: the reported polyreactivity (PSR sort gate) of QVQLVESGGGLVQAGGRLRLSCAASGRTILSYAMGWYRQAPAKERELVAAITGSGGRKYYADSVKGRFTISRENAKNTVYLQMNSLKPEDTAVYYCATRWIKGRKMDYWGQGTQVTVSS is ____.
high polyreactivity

----------
RUN_DESCRIPTION: yeast display, Sf9 membrane polyspecificity reagent, FACS + sequencing; frameworks hold sequencing errors

ITEM_SEQUENCE | polyreactivity (PSR sort gate)
QVQLVESGGGLVQAGGSLRLSCAASVFIYVKYAMGWYRQAPGKERELVAAITWSTGSTYYADSVKGRFTISRDNAKNTVYLQMNSMKPEDTAVYYCNVDSAWGRRYYSSYPFYYWGQGTQVTVSS | low polyreactivity
QVHLVESGGGLVQAGGSLRLSCAASGFTFDQNAMGWYRQAPGKERELVAAISIGGSTYYADSVKGRFTISRDNAKNTVYLQMNSLKPEDTAVYYCATRNIYFSSVDYWGQGTQVTVSS | high polyreactivity
QIQLVESVGGLVQAGGSLRLSCAASGSIFQYYAMGWYRQAPGKERELVAAISSGGSTYYADSVKGRFTISRENAKNTVYLQMNSLKPEDTAVYYCAADLQSGYTIPTSIVEYHPFDYWGQGTQGTVSS | low polyreactivity
QVQLVESGGGIVQAGGSLRLSCAASGRTFSWNTMGWYRQAPGKERELVAAITRVGTTYYADSVKGRFTISRDNAKNTVYLQMNSLKPEDTAVYYCAVKGPRWAYPGVDYWGQGTQVTVSS | high polyreactivity
